Cited source: PubChem BioAssay (NCI)

- Tested on: MCF7 breast
- ASSAY REMARKS: NCI tumour cell line growth inhibition, 48 h
TGI values for the compounds below.
QUANTITY NAME: TGI

[
  {
    "COMPOUND": "CN1C(=O)C2(C=CC(O)CC2)c2ccccc21 (stereo not given)",
    "QUANTITY NAME": "TGI",
    "RESULT": "> 100 µM"
  },
  {
    "COMPOUND": "CCOC(=O)C1=CCOc2cc(N(C)C)ccc21",
    "QUANTITY NAME": "TGI",
    "RESULT": "> 100 µM"
  },
  {
    "COMPOUND": "CS(=O)(=O)c1ccc(N=C/C=C/Nc2ccc(S(C)(=O)=O)cc2)cc1",
    "QUANTITY NAME": "TGI",
    "RESULT": "> 100 µM"
  },
  {
    "COMPOUND": "Cc1ccc(/C(O)=C/C(=O)C(=O)NC23CC4CC(CC(C4)C2)C3)cc1",
    "QUANTITY NAME": "TGI",
    "RESULT": "> 10 µM"
  },
  {
    "COMPOUND": "COCc1cc(C(=O)Nc2cc([C@H]3CC[C@@H](OC(=O)NC(C)C)C3)[nH]n2)n(C)n1",
    "QUANTITY NAME": "TGI",
    "RESULT": "> 100 µM"
  }
]

====

- Test system: COLO 205 colon
- ASSAY REMARKS: NCI tumour cell line growth inhibition, 48 h
TGI values for the compounds below.
QUANTITY NAME: TGI (µM)

[
  {
    "COMPOUND": "O=C(c1ccccc1)C(CN1CCCCC1)c1ccccc1 (configuration not stated)",
    "QUANTITY NAME": "TGI",
    "QUALIFYING SIGN": "=",
    "NUMERIC READOUT": 3.14
  },
  {
    "COMPOUND": "C[C@@]12CCC[C@@](C)(C(=O)O)C1CC[C@]13C[C@@](O)(CO)[C@](O)(CCC12)C3 (some centres not stated)",
    "QUANTITY NAME": "TGI",
    "QUALIFYING SIGN": ">",
    "NUMERIC READOUT": 100
  },
  {
    "COMPOUND": "COC(=O)C(C(=O)OC)C1CCCC(=O)C1 (configuration not stated)",
    "QUANTITY NAME": "TGI",
    "QUALIFYING SIGN": ">",
    "NUMERIC READOUT": 100
  },
  {
    "COMPOUND": "COc1cc(N(C)C)c(OC)cc1/C=C\\c1ccnc2ccccc12",
    "QUANTITY NAME": "TGI",
    "QUALIFYING SIGN": ">",
    "NUMERIC READOUT": 10
  },
  {
    "COMPOUND": "O=c1[nH]nc(Cc2c[nH]c3ccccc23)o1",
    "QUANTITY NAME": "TGI",
    "QUALIFYING SIGN": ">",
    "NUMERIC READOUT": 100
  },
  {
    "COMPOUND": "CC(C)([NH-])CO.CC(C)([NH-])CO.[Cl][Cd][Cl]",
    "QUANTITY NAME": "TGI",
    "QUALIFYING SIGN": "=",
    "NUMERIC READOUT": 55.8
  },
  {
    "COMPOUND": "COc1ccc(/C=C2\\CCS(=O)(=O)c3ccccc3C2=O)cc1",
    "QUANTITY NAME": "TGI",
    "QUALIFYING SIGN": "=",
    "NUMERIC READOUT": 30.5
  }
]

====

- System: HCC-2998 colon
- ASSAY REMARKS: NCI tumour cell line growth inhibition, 48 h

[
  {
    "MOLECULE": "COc1ccc(C2SCC(=O)N2NC(=O)c2ccc(NC(C)=O)cc2)c(OC)c1 (stereo not drawn)",
    "TGI": "> 100 µM"
  },
  {
    "MOLECULE": "CS(=O)(=O)c1ccc(N=C/C=C/Nc2ccc(S(C)(=O)=O)cc2)cc1",
    "TGI": "> 100 µM"
  },
  {
    "MOLECULE": "N=c1ccn(O)cc1/C=C1/C(=O)Nc2ccccc21",
    "TGI": "> 100 µM"
  },
  {
    "MOLECULE": "COc1ccc(CCCNC(=O)c2cc(OC)c(OC)cc2CCO)cc1OC",
    "TGI": "> 100 µM"
  },
  {
    "MOLECULE": "O=C1C2=C(CC3=C(C2)CS(=O)(=O)C3)C(=O)C2=C1CC1=C(C2)CS(=O)(=O)C1",
    "TGI": "> 51.6 µM"
  },
  {
    "MOLECULE": "COC(=O)c1ccc(N=NN(C)COc2ccc(Br)cc2)cc1",
    "TGI": "87.7 µM"
  },
  {
    "MOLECULE": "CC1=C(c2ccccc2)NC(=S)C(C)C(c2ccccc2)=N1 (stereo not drawn)",
    "TGI": "> 100 µM"
  },
  {
    "MOLECULE": "CC(Nc1ccc(S(=O)(=O)N=C(N)N)cc1)c1c2ccccc2nc2ccccc12 (stereo not drawn)",
    "TGI": "82.7 µM"
  }
]

====

- System: HS 578T breast
- ASSAY REMARKS: NCI tumour cell line growth inhibition, 48 h
QUANTITY NAME: TGI

[
  {
    "COMPOUND": "C/C(CC(O)(/C=N/O)c1ccccc1)=N/O (centres undefined)",
    "QUANTITY NAME": "TGI",
    "RESULT": "> 100 µM"
  },
  {
    "COMPOUND": "c1ccc(CN2COc3c(ccc4c3OCN(Cc3ccccc3)C4)C2)cc1",
    "QUANTITY NAME": "TGI",
    "RESULT": "> 100 µM"
  },
  {
    "COMPOUND": "O=C(c1ccccc1)C(CN1CCCCC1)c1ccccc1 (centres undefined)",
    "QUANTITY NAME": "TGI",
    "RESULT": "33.2 µM"
  },
  {
    "COMPOUND": "O=Nc1ccc(NO)c2ccccc12",
    "QUANTITY NAME": "TGI",
    "RESULT": "> 100 µM"
  },
  {
    "COMPOUND": "CN(C)CCn1c(=O)c2ccc(NCCN3CCNCC3)c3c(=O)c4ccccc4n(c1=O)c23",
    "QUANTITY NAME": "TGI",
    "RESULT": "25.9 µM"
  },
  {
    "COMPOUND": "O=C(c1ccccc1)c1ccc2[nH]c(-c3c(Cl)c(Cl)c(Cl)c(Cl)c3C(=O)N/N=C/c3cccc(Oc4ccccc4)c3)nc2c1",
    "QUANTITY NAME": "TGI",
    "RESULT": "> 100 µM"
  },
  {
    "COMPOUND": "[N-]=[N+]=NC(c1cn(C2CC(O)C(CO)O2)c(=O)[nH]c1=O)C(Cl)I (centres undefined)",
    "QUANTITY NAME": "TGI",
    "RESULT": "> 100 µM"
  },
  {
    "COMPOUND": "CCOC(=O)C(Cc1ccc(OC(=O)c2ccc(OC)cc2)cc1)NC(=O)C(F)(F)F (centres undefined)",
    "QUANTITY NAME": "TGI",
    "RESULT": "> 100 µM"
  },
  {
    "COMPOUND": "Cc1cc(N2CCOCC2)nc(N[C@@H]2CCC[C@H](Nc3ccnc4cc(Cl)ccc34)C2)n1",
    "QUANTITY NAME": "TGI",
    "RESULT": "5.14 µM"
  }
]

====

TGI values for the compounds below.
- Tested on: HOP-62 NSCLC
- ASSAY REMARKS: NCI tumour cell line growth inhibition, 48 h

[
  {
    "COMPOUND": "O=[P+](O)c1ccsc1",
    "TGI": "> 100 µM"
  },
  {
    "COMPOUND": "OC(c1ccc(C(F)(F)F)cc1)C(F)(F)c1nc2ccccc2o1 (stereo not given)",
    "TGI": "> 100 µM"
  },
  {
    "COMPOUND": "CCN(CC)CCCNCc1cc(-c2ccccc2)nc2ccccc12",
    "TGI": "> 100 µM"
  },
  {
    "COMPOUND": "NC(=O)Cc1nc2c(N)ncnc2n1C1OC(CO)C(O)C1O (stereo not given)",
    "TGI": "> 100 µM"
  },
  {
    "COMPOUND": "COC1CN(C)C(=Nc2cccc3ccccc23)S1 (stereo not given)",
    "TGI": "> 10 µM"
  }
]
